# TESTED SYSTEM: panel of 442 kinases (Homo sapiens, UniProt Q13873)
# Construct: purchased Ambit Biosciences (scanMAXX KINOMEscan)
# Sequence (Q13873 27-1038): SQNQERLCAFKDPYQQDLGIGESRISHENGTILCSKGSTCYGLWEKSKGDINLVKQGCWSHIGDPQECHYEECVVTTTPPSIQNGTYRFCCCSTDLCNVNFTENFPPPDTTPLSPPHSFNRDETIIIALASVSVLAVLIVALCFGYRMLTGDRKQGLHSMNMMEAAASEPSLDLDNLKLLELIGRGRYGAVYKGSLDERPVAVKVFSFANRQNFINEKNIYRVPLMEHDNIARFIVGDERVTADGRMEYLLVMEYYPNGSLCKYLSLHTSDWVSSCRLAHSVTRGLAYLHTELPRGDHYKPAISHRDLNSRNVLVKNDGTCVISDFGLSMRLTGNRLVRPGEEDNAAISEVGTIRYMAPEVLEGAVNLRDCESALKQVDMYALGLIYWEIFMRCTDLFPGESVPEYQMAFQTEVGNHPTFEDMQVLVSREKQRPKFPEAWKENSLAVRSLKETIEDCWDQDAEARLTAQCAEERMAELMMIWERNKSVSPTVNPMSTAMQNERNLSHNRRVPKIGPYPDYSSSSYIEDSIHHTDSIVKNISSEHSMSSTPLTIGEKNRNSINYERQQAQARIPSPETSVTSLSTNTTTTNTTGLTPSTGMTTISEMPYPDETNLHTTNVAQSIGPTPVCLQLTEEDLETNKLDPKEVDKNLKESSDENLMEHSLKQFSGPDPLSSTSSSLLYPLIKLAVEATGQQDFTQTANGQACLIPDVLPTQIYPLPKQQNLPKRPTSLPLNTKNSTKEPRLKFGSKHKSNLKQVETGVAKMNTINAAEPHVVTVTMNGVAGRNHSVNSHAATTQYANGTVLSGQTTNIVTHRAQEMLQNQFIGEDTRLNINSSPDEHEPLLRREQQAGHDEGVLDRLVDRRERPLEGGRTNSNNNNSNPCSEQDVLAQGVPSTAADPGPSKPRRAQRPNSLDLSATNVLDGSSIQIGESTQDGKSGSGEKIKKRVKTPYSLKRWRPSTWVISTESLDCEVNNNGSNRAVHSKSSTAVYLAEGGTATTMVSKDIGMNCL
# TEST METHOD NOTES: biochemical
# Assay type: binding
# RECORDED CONDITIONS: BMPR2; 1 µM; read-out: % of control at 1 µM
Would you kindly list remaining activity at 1 µM for each of these compounds?
Answers are plain numbers, in %.

Query: # get_value(readout='remaining activity at 1 µM', item= Cn1c(=O)n(-c2ccc(C(C)(C)C#N)cc2)c2c3cc(-c4cnc5ccccc5c4)ccc3ncc21 [Dactolisib] )
Result: 83

Query: # get_value(readout='remaining activity at 1 µM', item= FC(F)c1nc2ccccc2n1-c1nc(N2CCOCC2)nc(N2CCOCC2)n1 [ZSTK474] )
Result: 100

Query: # get_value(readout='remaining activity at 1 µM', item= Nc1cc(C(F)(F)F)c(-c2cc(N3CCOCC3)nc(N3CCOCC3)n2)cn1 [Buparlisib] )
Result: 86

Okay, now this compound:
Query: # get_value(readout='remaining activity at 1 µM', item= COc1ncc(-c2ccc3nccc(-c4ccnnc4)c3c2)cc1NS(=O)(=O)c1ccc(F)cc1F [Omipalisib] )
Result: 100
